Source: patent US10590153B2

assay: Drying behaviour of crystallisates in dependence on residual moisture and product purity (tempering in sealed vials, visual points classification); type: physicochemical; design: key: 5 points=sample unchanged; 4 points=sample compacted/started to dissolve; 3 points=sample visibly started to dissolve; 2 points=sample cloudy highly viscous solution; 1 point=sample dissolved to clear solution; conditions: Temperature 35 °C, test duration 24 h, sealed vial, shaken
measured-property: Visual classification at the end of the tempering step (points system)

- O=P(O)(O)CN(CCN(CP(=O)(O)O)CP(=O)(O)O)CCN(CP(=O)(O)O)CP(=O)(O)O [washed quality 11 [% by mass] residual moisture]: 5
- O=P(O)(O)CN(CCN(CP(=O)(O)O)CP(=O)(O)O)CCN(CP(=O)(O)O)CP(=O)(O)O [unwashed quality 47 [% by mass] residual moisture]: 5
- O=P(O)(O)CN(CCN(CP(=O)(O)O)CP(=O)(O)O)CCN(CP(=O)(O)O)CP(=O)(O)O [washed quality 53 [% by mass] residual moisture]: 5
- O=P(O)(O)CN(CCN(CP(=O)(O)O)CP(=O)(O)O)CCN(CP(=O)(O)O)CP(=O)(O)O [unwashed quality 40 [% by mass] residual moisture]: 5
- O=P(O)(O)CN(CCN(CP(=O)(O)O)CP(=O)(O)O)CCN(CP(=O)(O)O)CP(=O)(O)O [unwashed quality 31 [% by mass] residual moisture]: 5
- O=P(O)(O)CN(CCN(CP(=O)(O)O)CP(=O)(O)O)CCN(CP(=O)(O)O)CP(=O)(O)O [unwashed quality 24 [% by mass] residual moisture]: 5
